Test: Total Fluorescence Counterscreen for Inhibitors of the Interaction of Thyroid Hormone Receptor and Steroid Receptor Coregulator 2; further: potency means the concentration at half of the fitted maximal effect; tags describe the fitted curve by direction and shape or compound fluorescence and quenching
Conditions: TRb/SRC2 Texas Red total fluorescence interference; series mostly up to 106 µM
The campaign covered roughly 280,000 compounds. About 820 (0.29%) were called active. Inconclusive results (about 1%) are left out. The list comes from a sample in which actives are over-represented; it also holds close analogues and randomly drawn compounds.
property-name: Potency

Solved cases below.
Cc1ccc(C)c2sc(NC(=O)c3ccc(S(=O)(=O)N4CCCC4)cc3)nc12 = inactive
COc1ccc(-c2nn(CC(=O)Nc3ccccc3F)c3c2cnc2ccc(F)cc23)cc1 = inactive
CCOC(=O)c1c(N)sc(C(C)=O)c1C = inactive
CCCNC(=O)C(CC)n1nc(CC)n2c(cc3oc(C)cc32)c1=O (stereo unspecified) = 22.4 µM [quencher] (active)
O=C(Nc1cc(C(F)(F)F)ccc1Cl)c1ccc2c(c1)CCN2S(=O)(=O)c1ccccc1 = inactive
CN(C)c1ccc(N/C=C/C(=O)C(F)(F)F)cc1 = 44.7 µM [fluorescent] (active)

Quick check: Potency of `CCOc1cc(NC(=O)c2ccco2)c(OCC)cc1NC(=O)COc1ccccc1` ?
inactive

Quick check: Potency of `OCCC(F)(F)C(F)(F)C(F)(F)C(F)(F)C(F)(F)C(F)(F)C(F)(F)C(F)(F)F` ?
inactive

Quick check: Potency of `COc1ccccc1NC(=O)c1cc(C2CC2)nc2c1c(C)nn2-c1ccc(C)cc1` ?
inactive

Quick check: Potency of `CC1CCN(S(=O)(=O)c2ccc3c(c2)N(CC(=O)NCc2ccccc2Cl)C(=O)CO3)CC1` ?
inactive

Quick check: Potency of CC(C)(C)c1ccc(C(=O)NCC(c2ccc(Cl)cc2)N2CCOCC2)cc1 (stereo unspecified) ?
10 µM [quencher] (active)

Quick check: Potency of `CCOC(=O)c1ccc(NC(=O)CCS(=O)(=O)c2ccc(C)cc2)cc1` ?
inactive

Quick check: Potency of `Cc1ccc(C)c(Oc2c(C(F)(F)F)oc3c(CN4CCN(C)CC4)c(O)ccc3c2=O)c1` ?
inactive

Quick check: Potency of `CCOc1cc(NC(=S)NCCCOC)c(OCC)cc1NC(=O)c1ccco1` ?
7940 µM [quencher] (active)

Quick check: Potency of O=C(NCC(c1ccc(Cl)cc1)N1CCOCC1)c1ccccc1F (stereo unspecified) ?
inactive

Quick check: Potency of `O=C(CCn1c(=O)oc2ccccc21)Nc1ccon1` ?
inactive
